Each recorded value in this set is attributed to ChEMBL document CHEMBL4052615.

# tested_system: Metabotropic glutamate receptor 5 (Homo sapiens)
# assay_protocol: Displacement of [3H]M-MPEP from mGluR5 (unknown origin) at 1 uM measured after 60 mins relative to control
result_type: inhibition (%)

Some solved entries appear below for comparison.
1) N#Cc1ccc(S(=O)(=O)c2cnc3cc(F)ccc3c2N2CCOCC2)cc1: 4
2) CC1CCN(c2c(S(=O)(=O)c3ccc(F)c(Cl)c3)cnc3cc(Cl)ccc23)CC1: 94
3) COc1ccc(S(=O)(=O)c2cnc3ccc(Cl)cc3c2N2CCOCC2)cc1Cl: 33

a. O=S(=O)(c1ccc(F)c(Cl)c1)c1cnc2c(F)cccc2c1N1CCOCC1
b. O=S(=O)(c1ccc(Cl)cc1)c1cnc2cc(Cl)ccc2c1N1CCOCC1
Form field 'greater inhibition' accepts a or b ; which applies? # respond with the chosen item's label
a
(a: 83%, b: 55%)

* * *

# tested_system: Metabotropic glutamate receptor 5 (Homo sapiens)
# assay_protocol: Displacement of [3H]M-MPEP from mGluR5 (unknown origin) at 1 uM measured after 60 mins relative to control
result_type: inhibition (%)

1. COCC1CCN(c2c(S(=O)(=O)c3cccc(C#N)c3)cnc3cc(F)ccc23)CC1: 91
2. Cc1cc(C)cc(S(=O)(=O)c2cnc3cc(F)ccc3c2N2CCC(C)CC2)c1: 80
3. COc1ccc2ncc(S(=O)(=O)c3ccc(Cl)cc3)c(N3CCOCC3)c2c1: 93

A. CC1CCN(c2c(S(=O)(=O)c3ccc(F)c(Cl)c3)cnc3c(F)cccc23)CC1
B. O=S(=O)(c1ccccc1)c1cnc2cc(Cl)ccc2c1N1CCOCC1
Which value of inhibition is greater, the one for A or the one for B ? Select an item and report its label.
A

* * *

# tested_system: UniProt P41594
# assay_protocol: Displacement of [3H]M-MPEP from mGluR5 (unknown origin) at 1 uM measured after 60 mins relative to control
result_type: inhibition (%)

See these solved cases before continuing.
1) O=S(=O)(c1ccc(F)c(F)c1)c1cnc2cc(F)ccc2c1N1CCOCC1: 56
2) O=S(=O)(c1ccccc1)c1cnc2ccccc2c1N1CCCCC1: 71.4

I. O=S(=O)(c1ccc(Cl)cc1)c1cnc2ccc(Cl)cc2c1N1CCOCC1
II. O=S(=O)(c1cc(F)cc(F)c1)c1cnc2c(F)cccc2c1N1CCOCC1
III. COc1ccc2ncc(S(=O)(=O)c3cccc(Cl)c3)c(N3CCC(C)CC3)c2c1
IV. O=S(=O)(c1cccc(Cl)c1)c1cnc2cc(Cl)ccc2c1N1CCOCC1
# rank by inhibition, ascending (min first) Answer by listing the labels in the requested order.
III, I, II, IV

* * *

# tested_system: Metabotropic glutamate receptor 5 (Homo sapiens, UniProt P41594)
# Sequence (P41594 21-1212 limits assumed): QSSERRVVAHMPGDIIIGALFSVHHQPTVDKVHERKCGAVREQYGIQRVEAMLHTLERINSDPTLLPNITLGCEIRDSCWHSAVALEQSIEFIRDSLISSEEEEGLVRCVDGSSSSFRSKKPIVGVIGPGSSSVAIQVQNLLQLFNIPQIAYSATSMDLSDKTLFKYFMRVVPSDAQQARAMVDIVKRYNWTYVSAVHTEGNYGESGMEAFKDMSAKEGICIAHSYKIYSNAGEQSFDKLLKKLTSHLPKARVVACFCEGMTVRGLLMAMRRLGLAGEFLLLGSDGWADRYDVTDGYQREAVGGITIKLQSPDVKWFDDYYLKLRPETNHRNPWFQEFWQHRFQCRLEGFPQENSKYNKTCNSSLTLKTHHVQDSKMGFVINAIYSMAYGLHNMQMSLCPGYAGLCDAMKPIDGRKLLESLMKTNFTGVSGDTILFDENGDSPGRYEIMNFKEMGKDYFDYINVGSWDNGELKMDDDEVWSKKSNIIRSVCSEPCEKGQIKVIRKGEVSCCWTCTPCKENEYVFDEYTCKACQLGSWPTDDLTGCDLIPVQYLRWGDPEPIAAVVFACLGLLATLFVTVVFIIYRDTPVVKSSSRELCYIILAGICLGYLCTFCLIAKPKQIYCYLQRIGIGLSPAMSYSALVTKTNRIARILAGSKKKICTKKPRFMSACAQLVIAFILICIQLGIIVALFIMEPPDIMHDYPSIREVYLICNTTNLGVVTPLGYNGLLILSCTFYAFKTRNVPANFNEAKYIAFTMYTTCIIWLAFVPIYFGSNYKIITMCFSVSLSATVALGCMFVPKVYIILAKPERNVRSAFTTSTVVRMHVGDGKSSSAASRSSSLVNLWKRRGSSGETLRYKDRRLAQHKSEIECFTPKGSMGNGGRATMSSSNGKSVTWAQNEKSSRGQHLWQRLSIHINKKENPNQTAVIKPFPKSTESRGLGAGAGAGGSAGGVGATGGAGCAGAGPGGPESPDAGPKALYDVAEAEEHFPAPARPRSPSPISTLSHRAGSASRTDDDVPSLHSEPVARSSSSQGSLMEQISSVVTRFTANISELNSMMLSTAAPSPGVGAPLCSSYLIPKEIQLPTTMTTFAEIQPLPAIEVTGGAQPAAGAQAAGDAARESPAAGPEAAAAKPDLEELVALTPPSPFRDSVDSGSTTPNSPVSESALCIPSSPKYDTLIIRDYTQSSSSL
# assay_protocol: Displacement of [3H]M-MPEP from mGluR5 (unknown origin) at 1 uM measured after 60 mins relative to control
result_type: inhibition (%)

Guide cases for inhibition, answers given:
1) CC1CCN(c2c(S(=O)(=O)c3cc(Cl)cc(Cl)c3)cnc3ccc(Cl)cc23)CC1: 88
2) NS(=O)(=O)N1CCN(c2c(S(=O)(=O)c3cccc(F)c3)cnc3cc(F)ccc23)CC1: 1.9
3) COc1cccc(S(=O)(=O)c2cnc3cc(Cl)ccc3c2N2CCOCC2)c1: 70
4) CC1CCN(c2c(S(=O)(=O)c3cccc(C#N)c3)cnc3ccc(Cl)cc23)CC1: 90
5) COc1cccc(S(=O)(=O)c2cnc3ccc(F)cc3c2N2CCOCC2)c1: 41
6) COc1ccc(S(=O)(=O)c2cnc3ccc(F)cc3c2N2CCOCC2)cc1Cl: 26
7) CC1CCN(c2c(S(=O)(=O)c3ccccc3)cnc3ccc(Cl)cc23)CC1: 59
8) CC1CCN(c2c(S(=O)(=O)c3cccc(Cl)c3)cnc3ccc(F)cc23)CC1: 92
9) Cc1ccc2ncc(S(=O)(=O)c3ccccc3)c(N3CCC(C)CC3)c2c1: 67
10) COCC1CCN(c2c(S(=O)(=O)c3ccc(F)cc3)cnc3cc(F)ccc23)CC1: 76.1

1. O=S(=O)(c1cc(Cl)cc(Cl)c1)c1cnc2cc(Cl)ccc2c1N1CCOCC1
2. O=S(=O)(c1cc(Cl)cc(Cl)c1)c1cnc2ccc(F)cc2c1N1CCOCC1
3. COc1cccc(S(=O)(=O)c2cnc3ccc(Cl)cc3c2N2CCOCC2)c1
// smallest inhibition at index 0, largest at the end List labels; respect the requested ordering.
2, 3, 1

1. CC1CCN(c2c(S(=O)(=O)c3ccc(C#N)cc3)cnc3cc(F)ccc23)CC1
2. COc1ccc(S(=O)(=O)c2cnc3cc(F)ccc3c2N2CCOCC2)cc1
Choose between 1 and 2 : whose measured inhibition value is numerically larger? Indicate your choice by writing its label.
1

1. Cc1ccc(S(=O)(=O)c2cnc3cc(Cl)ccc3c2N2CCOCC2)cc1C
2. COc1ccc(S(=O)(=O)c2cnc3cc(Cl)ccc3c2N2CCOCC2)cc1
3. COc1ccc2ncc(S(=O)(=O)c3ccc(F)cc3)c(N3CCOCC3)c2c1
4. Cc1ccc2ncc(S(=O)(=O)c3ccc(F)c(F)c3)c(N3CCOCC3)c2c1
Reorder: inhibition, max to min. Thanks in advance for listing the labels in the requested order.
1, 2, 4, 3
